Biological target: T1, cynomolgus FGFR3 (cynomolgus)
T1 construct: also called cynoFGFR3
T1 chain: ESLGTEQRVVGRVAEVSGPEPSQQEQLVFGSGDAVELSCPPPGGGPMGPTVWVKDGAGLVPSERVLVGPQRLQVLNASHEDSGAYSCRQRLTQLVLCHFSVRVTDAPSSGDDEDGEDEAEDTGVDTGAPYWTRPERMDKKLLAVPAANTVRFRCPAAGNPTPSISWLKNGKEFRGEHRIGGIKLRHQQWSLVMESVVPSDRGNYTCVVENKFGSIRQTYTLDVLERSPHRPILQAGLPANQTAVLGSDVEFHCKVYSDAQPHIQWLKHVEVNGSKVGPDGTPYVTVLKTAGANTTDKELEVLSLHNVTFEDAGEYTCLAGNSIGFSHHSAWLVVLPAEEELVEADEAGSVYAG
Assay: reactivity grade (Table 2); method not given

BINDER	binding result
KE35 (antibody, V domains shown, Mouse monoclonal antibody from a hybridoma; also called anti-FGFR3 antibody KE35) VH: EVQLQQSGPELVKPGASVKMSCKASGYTFTDYNMHWVKQSHGKSLEWIGYINPNNGGTRYNQKFKGKATLTVNKSSSTAYMELRSLTSEDSAVYYCARERDYDGAMDYWGQGTSVTVSS VL: DIQMTQSPSSLSASLGGKVTITCKASQDINKFIAWYQHKPGKGPRLLIHYTSTLQPGIPSRFSGSGSGRDYSFSISNLEPEDIATYYCLQYDNLLWTFGGGTKLEIK	binds
KE58 (antibody, V domains shown, Mouse monoclonal antibody from a hybridoma; also called anti-FGFR3 antibody KE58) VH: EVQLQQSGPDLVKPGASVKISCKASGYTVTDYYMNWVKQSHGKSLEWIGDINPNNGVTTYNQKFKDKATLTVDKSSSTAYMELRSLTSEDSAVYYCAREEDFDGFDYWGQGTTLTVSS VL: DIVMTQSHKFMSTSVGDRVSITCKASQDVSTGVAWYQQKPGQSPQLLIYWASTRHTGVPDRFTGSGSGTDYILTIRSVQAEDLALYYCQQHYSTPLTFGAGTKLELK	binds
KC18 (antibody, V domains shown, Mouse monoclonal antibody from a hybridoma; also called anti-FGFR3 antibody KC18; KC18 mouse antibody) VH: QVQLQQSGAELVRPGASVTLSCKASGDTFTDFEIHWVKQTPVHGLEWIGDIDPETGGTAYNQKFRGRAMLTADRSSSTAYMELRSLTSEDSAVYYCTRTYDGYPYAMDYWGQGTSVTVSS VL: DIVMSQSPSSLAVSVGEKVTMSCKSSQSLLYSNNQKNYLAWYQQKPGQSPKLLIYWASTRESGVPDRFTGSGSGTDFTLTISSVKAEDLAVYYCQQYYSYRTFGGGTKLEIK	binds
KE94 (antibody, V domains shown, Mouse monoclonal antibody from a hybridoma; also called anti-FGFR3 antibody KE94) VH: QVQLQQSGAELVRPGASVTLSCKASGSTFTDFEIHWVKQTPVHGLEWIGAIDPETGGTAYNQKFKGKAILTAVKSSSTAYMGLRSLTSEDSAVYYCTRNYDGYSRTMDYWGQGTSVTVSS VL: NIMMTQSPSSLAVSAGEKVTMSCKSSQSVLYSSNQKNYLAWYQQKPGQSPKLLIYWASTRESGVPDRFTGSGSGTDFSLSISSVQTEDLAVYYCHQYLSSYTFGGGTRLEMK	binds
KE63 (antibody, V domains shown, Mouse monoclonal antibody from a hybridoma; also called anti-FGFR3 antibody KE63) VH: QVQLQQSGAELVRPGASVTLSCKASGSTFSDFEIHWVKQTPVHGLEWIGGIDPETGGTAYNQKFKGKAILTADRSSSTAYMELRSLTSEDSAVYYCTRNYDGYSQTMDYWGQGTSVTVSS VL: NIMMTQSPSSLAVSAGEKVTMSCKSSQSVLYSSNQKNYLAWYQQKPGQSPKLLIYWASTRESGVPDRFTGSGSGTDFTLTISSVQAEDLAVYYCHQYLSSYTFGGGTKLEMK	binds
KE42 (antibody, V domains shown, Mouse monoclonal antibody from a hybridoma; also called anti-FGFR3 antibody KE42) VH: EVQLQQSGPELVKPGASVKMSCKASGYTFTDYNMHWVKQSHGKSLQWIGYINPNNGGTNYNQNFKDKATLTVNKSSTTAYMELRSLTSEDSAVYYCARERDYDGSMDFWGQGTSVTVSS VL: DIQMTQSPSSLSASLGGKVTITCKASQDINKFIAWYQHKPGKGPRLLIHYTSTLQPGIPSRFSGSGSGRDYSFSISNLEPEDIATYFCLQYDNLLWTFGGGTKLEIK	binds

Every entry's value here was drawn from patent US20220056142A1.
